Values were extracted from a melting point compilation (Tetko et al.; mined from patent text by program, amines drawn as free bases though some values may be those of a salt).

The entries below come with measured melting point values attached.

# count of solved cases: 5
Compound: Cc1ccc(-c2cccnc2C#N)cc1
melting point: 136 to 138 °C

Compound: CN(C)CCOc1cc2c(Nc3ccc(Oc4ccccc4)cc3)c(C#N)cnc2cn1
melting point: 159 to 161 °C

Compound: COc1c(C2CCN(CCCCNC(=O)c3sc(-c4ccc(Cl)cc4)nc3CO)CC2)ccc2c1CCCC2
melting point: 198 to 200 °C

Compound: ClCc1ccc(-c2nnc3n2-c2cccnc2Nc2ccccc2-3)cc1
melting point: 260 to 262 °C

Compound: COCCOc1ccc(CCCC(=O)O)c(Oc2ncc(C(F)(F)F)cc2Cl)c1
melting point: 119 to 120 °C

Query: Answer with reported melting point of CCCCOc1ccc(S(=O)(=O)NCCCCOc2ccc(-n3ccnc3)cc2)cc1
Response: 103 to 105 °C

Query: Answer with reported melting point of c1ccc(-c2ccc(-c3cnc(-c4ccccc4)[nH]3)cn2)cc1
Response: 206 °C

====

The entries below come with measured melting point values attached.

Molecule: O=C1NCCCN1C1(CO)CCNCC1
melting point: 162 °C
//
Molecule: Cc1nn(-c2ccccn2)c2[nH]c3ccc(N(C)C)cc3c(=O)c12
melting point: 171 to 173 °C
//
Molecule: O=C1CC(c2ccccc2)NC(=O)C1C(=O)c1ccccc1F (centres undefined)
melting point: 115 to 116 °C
//
Molecule: CC(Cc1ccc(Oc2cc(Oc3ccccc3)nc(N3CCN(Cc4ccccc4)CC3)n2)cc1)(Oc1ccccc1)C(=O)O (centres undefined)
melting point: 135 to 137 °C
//
Molecule: O=C(CO)N[C@H]1CC[C@H](CCN2CCC(c3cccc4c3CCO4)CC2)CC1
melting point: 154 °C

Query: Answer with reported melting point of O=C(O)c1ccccc1NCCCN1c2ccccc2CCc2ccc(Cl)cc21
Response: 176 to 178 °C

Query: Answer with reported melting point of Cc1cccc(NC(=O)NC2N=C(c3ccccc3F)c3ccccc3N(Cc3ncccc3C(N)=O)C2=O)c1 (racemic)
Response: 203 °C

Query: Answer with reported melting point of O=c1[nH]c(=O)n(C2OC(CO)C(O)C2F)cc1C=CBr (centres undefined)
Response: 80 to 83 °C

Query: Answer with reported melting point of NC(CS(=O)(=O)c1ccccc1)=NNC(=O)c1cc2ccccc2o1
Response: 205 to 220 °C

====

Observable: melting point

Compound: O=C(Nc1ccc(N2CCCCC2)cc1)N(C[C@@H]1CCC[C@H](CN(C(=O)Nc2ccc(N3CCCCC3)cc2)C2CCCCC2)C1)C1CCCCC1
melting point: 174 to 178 °C

Query: Answer with reported melting point of O=C1CCC(CCC(=O)OCc2ccccc2)N1 (centres undefined)
Response: 79 to 80 °C

Query: Answer with reported melting point of COc1cccc(S(=O)(=O)N2CCCC2=O)c1
Response: 108 to 109 °C

Query: Answer with reported melting point of CCN(CC)CCOc1ccc(Nc2ncc3c(n2)N(c2ccccc2)C(=O)N(c2c(Cl)cccc2Cl)C3)cc1
Response: 162 to 163 °C

Query: Answer with reported melting point of CCCCCCCCCCCCCCCCCCNC(=O)OCC(CNS(=O)(=O)CCCCl)OC(=O)NC (centres undefined)
Response: 102 to 104 °C

Query: Answer with reported melting point of CCOC(=O)c1c(C(F)(F)F)nc(C(F)(F)F)c(C)c1O
Response: 23 to 24.5 °C

Query: Answer with reported melting point of COc1ccc(CN2CCC(c3cn(Cc4cccs4)c4cc(F)ccc34)CC2)cc1C(=O)O
Response: 245 to 246 °C

Query: Answer with reported melting point of Cn1cc(OS(C)(=O)=O)c(=O)c2ccc(C#N)cc21
Response: 268 °C

Query: Answer with reported melting point of NC(=O)c1csc2ccc([N+](=O)[O-])cc12
Response: 243 to 250 °C

Query: Answer with reported melting point of CC(C)Cn1c(CNC(=O)OC(C)(C)C)c(-c2ccc(F)cc2)c2cc(OCC(N)=O)ccc2c1=O
Response: 218 to 219 °C

Query: Answer with reported melting point of COc1ccc(C(=O)Nc2cc(NC(=O)c3cccc(OCC(=O)O)c3)ccc2C)cc1OC
Response: 206 to 207 °C

Query: Answer with reported melting point of COC(=O)C(C)(C)Cc1c(SC(C)(C)C)c2ccc(OC)cc2n1C
Response: 97 to 98 °C

Query: Answer with reported melting point of COc1c(C)cc(N2CCN(c3ccc([N+](=O)[O-])cc3)CC2)cc1C
Response: 135 °C

Query: Answer with reported melting point of CCCc1cn(C(CC)C(=O)N(C)C)nc1-c1ccccc1 (centres undefined)
Response: 63 to 65.5 °C

Query: Answer with reported melting point of CN(C)c1cc(Oc2cccc(C(F)(F)F)c2)nc(C(=O)NN=CC(F)(F)C(F)(F)F)c1
Response: 108 to 109 °C

Query: Answer with reported melting point of C=CCSC(=NC(=O)OC)NC(=O)NC(C)C
Response: 103 to 106 °C

Query: Answer with reported melting point of O=C1c2ccccc2C(=O)N1CCON=C1c2ccccc2-n2cccc21
Response: 195 °C

Query: Answer with reported melting point of CCCCc1ccc(N2CCC(CCOc3ccc(C(=O)OCC)cc3)CC2)nn1
Response: 91.4 °C

Query: Answer with reported melting point of CCCCN(Cc1ccc(-c2ccccc2-c2nnnn2C(c2ccccc2)(c2ccccc2)c2ccccc2)cc1)c1ncccc1C(=O)OCC
Response: 90 to 94 °C

====

The entries below come with measured melting point values attached.

# count of solved cases: 8
Molecule: CC(C)C(N)=C(C#N)C#N
melting point: 163 to 164 °C
--
Molecule: Cc1cc(C)c(C2CC(=O)C=C(O)C2)c(C)c1 (stereo not given)
melting point: 165 °C
--
Molecule: Cc1onc(-c2ccc(C(F)(F)F)cc2)c1CCl
melting point: 91 to 92 °C
--
Molecule: O=C(O)c1cc(=O)c2cc([N+](=O)[O-])ccc2s1
melting point: 220 °C
--
Molecule: CNC(=O)c1ccc(C(=O)OC)cc1[N+](=O)[O-]
melting point: 155 °C
--
Molecule: CCCCCCNc1ccc(N=O)cc1
melting point: 46 to 48 °C
--
Molecule: CC/C(=C(/C)C#N)c1cccc(O)c1
melting point: 80 to 83 °C
--
Molecule: COc1ccc(-c2nc(-c3ccccc3)c(N(C)c3ccccc3)s2)cc1
melting point: 100 to 101 °C

Query: Answer with reported melting point of CC(=O)C(=Cc1ccc(C(=O)O)cc1)C(C)=O
Response: 195 to 199 °C

====

The entries below come with measured melting point values attached.

# count of solved cases: 2
Compound: CCCN(CCC)Cc1nc(-c2ncn3c2[C@@H]2CCCN2C(=O)c2cc(F)ccc2-3)no1
Data Value: 222 to 225 °C
//
Compound: COCCO[C@H]1c2ccn3c(C)c(C)nc3c2N[C@H](c2ccccc2)[C@H]1OC(=O)c1ccccc1
Data Value: 78 to 80 °C

Query: Answer with reported melting point of Cn1nc(NC(=O)c2ccccc2)c2c(=O)n3c(nc21)SCC3
Response: 271 to 272 °C

Query: Answer with reported melting point of CCOC(=O)C(=CNC1CCCCC1)C(=O)c1ccc(I)cc1Cl
Response: 154 to 156 °C

Query: Answer with reported melting point of CC1CCOCc2nc3c(N)nc4cc(Br)ccc4c3n21 (stereo not given)
Response: 247 to 248 °C

====

The entries below come with measured melting point values attached.

Molecule: COc1cccc(-c2nn(Cc3oc4ccccc4c(=O)c3-c3ccccc3)c3ncnc(N)c23)c1
melting point: 111 to 115 °C

Query: Answer with reported melting point of CNC(=O)C(C)(C)n1cc(C)c(-c2ccccc2Cl)n1
Response: 87 to 90.5 °C

Query: Answer with reported melting point of CS(=O)CC(=O)c1ccccc1N (stereo unspecified)
Response: 99 to 100 °C

Query: Answer with reported melting point of Cc1ccccc1-c1cc2cnc(N)nc2n(C)c1=O
Response: 239 °C

====

The entries below come with measured melting point values attached.

# count of solved cases: 8
Molecule: COC(=O)c1[nH]c2c(Cl)ccc(Cl)c2c1C
melting point: 110 to 111 °C

Molecule: CC(C)(C)OC(=O)N1CCC(c2nc3cc(-c4ccc(-n5cnnn5)cc4)ccc3o2)CC1
melting point: 207 to 211 °C

Molecule: Nc1ccn(C2CN3CCC2CC3)n1 (stereo unspecified)
melting point: 112 to 115 °C

Molecule: COc1cc(Nc2c(C#N)cnc3cc(-c4cc5ccccc5s4)ccc23)c(Cl)cc1Cl
melting point: 269 to 270 °C

Molecule: CCCCCC[C@H](F)CO
melting point: 33 to 35 °C

Molecule: O=C(O)CCCN1CCN(C2=Nc3ccccc3Cc3ccccc32)CC1
melting point: 207 to 208 °C

Molecule: CCN1CCNC1=C[N+](=O)[O-]
melting point: 110 to 111 °C

Molecule: COc1ccc(S(=O)(=O)Nc2nc(-c3cccc4ccccc34)cs2)cc1OC
melting point: 132 to 133 °C

Query: Answer with reported melting point of CC(C)O[Si](C)(CCl)c1ccc(-c2ccccc2)cc1 (stereo unspecified)
Response: 35 to 38 °C

Query: Answer with reported melting point of CCOC(=O)CC(C#N)(CC(=O)OCC)c1ccc(OC)cc1
Response: 65 to 75 °C

Query: Answer with reported melting point of O=C(O)c1cccc(-c2cccc3c2CCN(Cc2cccc(C(F)(F)F)c2)C3)c1
Response: 230 to 231 °C

Query: Answer with reported melting point of CC(NC(=NC#N)Nc1cccnc1)c1ccccc1 (stereo unspecified)
Response: 185 to 187 °C

Query: Answer with reported melting point of CCC1(c2ccc(=O)[nH]n2)CCCCC1
Response: 138 to 140 °C

Query: Answer with reported melting point of CN1CCc2cc(Br)[nH]c2C(c2ccccc2)C1 (stereo unspecified)
Response: 132 to 133 °C

Query: Answer with reported melting point of O=[N+]([O-])c1c(Br)nn(Cc2ccccc2)c1NCCO
Response: 110 to 112 °C

Query: Answer with reported melting point of CNC(=O)N1CC(Oc2ccc(C(F)(F)F)cc2Cl)C1
Response: 160 to 161 °C

Query: Answer with reported melting point of COc1cc([N+](=O)[O-])c2nccc(C)c2c1OCCCCCc1ccco1
Response: 47 to 49 °C

Query: Answer with reported melting point of O=C1C2=C(CCCC2)C(=O)N1c1ccc(Br)c(O)c1
Response: 247 to 248 °C

Query: Answer with reported melting point of CC(=O)Nc1ccc(OCC(O)CN(C)C)c(NC(C)=O)c1 (stereo unspecified)
Response: 118 to 120 °C

Query: Answer with reported melting point of COC(=O)Cc1ccc(OCCNC(=O)C2Cc3ccccc3N2S(=O)(=O)c2ccc(-c3cc(C)ccc3Cl)cc2)cc1 (stereo unspecified)
Response: 50 to 53 °C

Query: Answer with reported melting point of O=C(NCCN1CCOCC1)NCc1ccc2c(c1)Cc1c(-c3ccsc3)n[nH]c1-2
Response: 168 to 170 °C

Query: Answer with reported melting point of Cc1noc(-c2ccc(C(=O)N3Cc4cccn4Cc4ccccc43)cc2)n1
Response: 177 to 179 °C

Query: Answer with reported melting point of CCCCCCCN1C(=O)C2CC(c3ccc(N)cc3)(C2)C1=O
Response: 69 to 71 °C

Query: Answer with reported melting point of CSc1ccc(-n2c(-c3ccccc3)nc(SC)c(C#N)c2=O)cc1
Response: 204 to 205 °C

Query: Answer with reported melting point of OC1(c2cncs2)CCCc2cc(Cl)ccc21 (stereo unspecified)
Response: 108 to 109 °C

Query: Answer with reported melting point of CSc1ccc(C)c2onc(OCCNC(=O)OC(C)(C)C)c12
Response: 85 to 86 °C

Query: Answer with reported melting point of CC(C)N1CC2(COc3ccc([N+](=O)[O-])cc3OC2)OC1=O (stereo unspecified)
Response: 140 to 144 °C

Query: Answer with reported melting point of O=S1(=O)CCCSC(Cl)=N1
Response: 156 °C
